- System: Plasmodium berghei
- protocol.summary: Luciferase/luciferin-expressing antifolate-resistant parasites were used to infect a culture of HepG2 cells that were pre-incubated with compounds. Infected hepatocytes emit light due to the luciferase reaction. Assay results are presented as the percent inhibition of light emission compared to control. […]
- Assay type: functional
- measurement.setup: sporozoite, FFLUC_HILL_SLOPE 12.3, FFLUC_R_SQUARED 0.48, read-out: LUCIFERASE INFECTION ASSAY - IC50
result.type: IC50

State the recorded IC50 for this entry: `CC1CCN(/C(=N/S(=O)(=O)c2ccc(-n3nc(C(F)(F)F)cc3-c3cccs3)cc2)N/N=C/c2ccc(Cl)cc2)CC1`
> 5.2 µM

====

- Tested on: Plasmodium berghei
- protocol.summary: Luciferase/luciferin-expressing antifolate-resistant parasites were used to infect a culture of HepG2 cells that were pre-incubated with compounds. Infected hepatocytes emit light due to the luciferase reaction. Assay results are presented as the percent inhibition of light emission compared to control. […]
- Assay type: functional
- measurement.setup: sporozoite, PBLUC_HILL_SLOPE 10.5, PBLUC_R_SQUARED 0.045, read-out: LUCIFERASE INFECTION ASSAY - IC50
result.type: IC50

Requested field: IC50. Item: `Cc1ccccc1-c1ccnc2c1c(=O)[nH]c(=O)n2Cc1ccccc1`
> 9.61 µM

====

- System: Plasmodium berghei
- protocol.summary: Luciferase/luciferin-expressing antifolate-resistant parasites were used to infect a culture of HepG2 cells that were pre-incubated with compounds. Infected hepatocytes emit light due to the luciferase reaction. Assay results are presented as the percent inhibition of light emission compared to control. […]
- Assay type: functional
- measurement.setup: sporozoite, PBLUC_HILL_SLOPE 10.3, PBLUC_R_SQUARED 0.243, read-out: LUCIFERASE INFECTION ASSAY - IC50
result.type: IC50

// IC50 lookup, key: `COc1cc(-c2cnc(N)c(-c3ccc(F)c(Cl)c3)c2)ccc1O`
8.4 µM

====

- Tested on: Plasmodium berghei
- protocol.summary: Luciferase/luciferin-expressing antifolate-resistant parasites were used to infect a culture of HepG2 cells that were pre-incubated with compounds. Infected hepatocytes emit light due to the luciferase reaction. Assay results are presented as the percent inhibition of light emission compared to control. […]
- Format: functional
- measurement.setup: sporozoite, FFLUC_HILL_SLOPE 18.8, FFLUC_R_SQUARED 0.397, HEPG2TOX_HILL_SLOPE 0.504, HEPG2TOX_R_SQUARED 0.366, read-out: LUCIFERASE INFECTION ASSAY - IC50
result.type: IC50

Item `O=[N+]([O-])c1cc(C(F)(F)F)ccc1N1CCCN(C(=S)Nc2cccc(C(F)(F)F)c2)CC1` with Plasmodium berghei - IC50?
> 6.7 µM

====

The entries below are paired with their reported IC90.
- Tested on: Plasmodium berghei
- protocol.summary: Luciferase/luciferin-expressing antifolate-resistant parasites were used to infect a culture of HepG2 cells that were pre-incubated with compounds. Infected hepatocytes emit light due to the luciferase reaction. Assay results are presented as the percent inhibition of light emission compared to control. […]
- Format: functional
- measurement.setup: sporozoite, read-out: LUCIFERASE INFECTION ASSAY - IC90
Numbers only here, please. The scale is µM.

CC(C)(C)c1ccccc1NC(=O)Nc1nc(C(N)Cc2ccc(C(F)(F)F)cc2)cs1 (stereo unspecified) : 3.44
CC(=O)N1N=C(c2ccccc2O)CC1c1c(F)cccc1Cl (stereo unspecified) : 9.88
Cc1ccc(OCCNC(=O)c2[nH]c3c(c2C)C(=O)CCC3)c(C)c1 : 2.74
O=C(Nc1ncc(Cc2cccc(Cl)c2Cl)s1)c1ccncc1 : 7.55
CNC(=O)c1ccc(/C=C/C(=O)c2ccc3c4c(cccc24)CC3)cc1 : 9.31
O=C(Nc1nc(-c2ccccn2)cs1)C1CC1c1ccccc1F (stereo unspecified) : 3.57

Find the recorded IC90 belonging to COc1ccc(C(NS(=O)(=O)c2ccc(-n3ncc(Cl)c(Cl)c3=O)cc2)C(C)C)cc1 (stereo unspecified) and report it.
2.38

Likewise for `OCc1ccc(-c2cn3c(-c4cccc(OC(F)(F)F)c4)cnc3cn2)cc1` ?
4.85

Now try Cc1cc(C(C)(C)C)cc(C)c1CCNC(=O)C1CC1C (stereo unspecified) .
9.15

Please answer likewise for CC1CCC(C(C)C)C(OC(=O)C[n+]2cn(C)c3ccccc32)C1 (stereo unspecified)
3.79

====

- System: Plasmodium berghei
- protocol.summary: Luciferase/luciferin-expressing antifolate-resistant parasites were used to infect a culture of HepG2 cells that were pre-incubated with compounds. Infected hepatocytes emit light due to the luciferase reaction. Assay results are presented as the percent inhibition of light emission compared to control. […]
- Type: functional
- measurement.setup: sporozoite, HEPG2TOX_HILL_SLOPE 7.72, HEPG2TOX_R_SQUARED 0.792, PBLUC_HILL_SLOPE 12.3, PBLUC_R_SQUARED 0.186, read-out: LUCIFERASE INFECTION ASSAY - IC50
result.type: pIC50
Scale: negative log10 of molar concentration, which is what pIC50 denotes.

For `O=c1cc(C(F)(F)F)[nH]n1-c1ccc(OC(F)(F)F)cc1` , what is its reported pIC50?
5.01

====

- Test system: Plasmodium berghei
- protocol.summary: Luciferase/luciferin-expressing antifolate-resistant parasites were used to infect a culture of HepG2 cells that were pre-incubated with compounds. Infected hepatocytes emit light due to the luciferase reaction. Assay results are presented as the percent inhibition of light emission compared to control. […]
- Assay type: functional
- measurement.setup: sporozoite, FFLUC_HILL_SLOPE 12.5, FFLUC_R_SQUARED 0.056, HEPG2TOX_HILL_SLOPE 0.321, HEPG2TOX_R_SQUARED 0.0152, PBLUC_HILL_SLOPE 3.37, 16.8, PBLUC_R_SQUARED 0.316, 0.669, read-out: LUCIFERASE INFECTION ASSAY - IC50
result.type: pIC50
Note on units: pIC50 is unitless, being -log10 of a concentration expressed in mol/L.

# pIC50 lookup, item Cc1ccc(C2(c3ccccc3)NC(=O)N(CC(=O)c3cccs3)C2=O)cc1C (stereo unspecified)
5.39

====

- Tested on: Plasmodium berghei
- protocol.summary: Luciferase/luciferin-expressing antifolate-resistant parasites were used to infect a culture of HepG2 cells that were pre-incubated with compounds. Infected hepatocytes emit light due to the luciferase reaction. Assay results are presented as the percent inhibition of light emission compared to control. […]
- Format: functional
- measurement.setup: sporozoite, FFLUC_HILL_SLOPE 9.81, FFLUC_R_SQUARED 0.743, PBLUC_HILL_SLOPE 8.4, PBLUC_R_SQUARED 0.579, read-out: LUCIFERASE INFECTION ASSAY - IC50
result.type: pIC50
Scale: negative log10 of molar concentration, which is what pIC50 denotes.

Could you share which pIC50 value was measured for `COc1cc(Cl)c(C)cc1-n1c(SCc2nnc(-c3cccs3)o2)nc2ccccc2c1=O` ?
5.07

====

- Test system: Plasmodium berghei
- protocol.summary: Luciferase/luciferin-expressing antifolate-resistant parasites were used to infect a culture of HepG2 cells that were pre-incubated with compounds. Infected hepatocytes emit light due to the luciferase reaction. Assay results are presented as the percent inhibition of light emission compared to control. […]
- Assay type: functional
- measurement.setup: sporozoite, PBLUC_HILL_SLOPE 15, PBLUC_R_SQUARED 0.438, read-out: LUCIFERASE INFECTION ASSAY - IC50
result.type: IC50 (µM)
Field format: number, assumed µM, no unit text.

Hi! What's the reported IC50 for `O=C(NCc1ccc(-c2cccs2)s1)c1ccc([N+](=O)[O-])s1` on Plasmodium berghei?
8.73

====

- Test system: Plasmodium berghei
- protocol.summary: Luciferase/luciferin-expressing antifolate-resistant parasites were used to infect a culture of HepG2 cells that were pre-incubated with compounds. Infected hepatocytes emit light due to the luciferase reaction. Assay results are presented as the percent inhibition of light emission compared to control. […]
- Format: functional
- measurement.setup: sporozoite, PBLUC_HILL_SLOPE 0.906, PBLUC_R_SQUARED 0.913, read-out: LUCIFERASE INFECTION ASSAY - IC50
result.type: IC50
Please state the number and follow it with the unit.

Can you look up the measured IC50 of `CC(C)(C)c1ccc(C(=O)Nc2cc(F)ccc2F)s1` for me?
48.7 nM

====

- Test system: Plasmodium berghei
- protocol.summary: Luciferase/luciferin-expressing antifolate-resistant parasites were used to infect a culture of HepG2 cells that were pre-incubated with compounds. Infected hepatocytes emit light due to the luciferase reaction. Assay results are presented as the percent inhibition of light emission compared to control. […]
- Type: functional
- measurement.setup: sporozoite, PBLUC_HILL_SLOPE 1.36, PBLUC_R_SQUARED 0.325, read-out: LUCIFERASE INFECTION ASSAY - IC50
result.type: pIC50
pIC50 is defined as minus the log10 of a concentration measured in mol/L.

Given the entry `c1ccc(NCCNc2nc(-c3ccncc3)nc3ccccc23)nc1` , report its measured pIC50.
5.29
